A collection of compounds and their measured pIC50
biological target: Cathepsin D (Cat D) (Homo sapiens (Human), UniProt P07339); experiment: In vitro enzymatic Cathepsin D (Cat D) FRET assay; assay type: biochemical; conditions: read-out: CatD IC50
Sequence (P07339 65-412, species assumed): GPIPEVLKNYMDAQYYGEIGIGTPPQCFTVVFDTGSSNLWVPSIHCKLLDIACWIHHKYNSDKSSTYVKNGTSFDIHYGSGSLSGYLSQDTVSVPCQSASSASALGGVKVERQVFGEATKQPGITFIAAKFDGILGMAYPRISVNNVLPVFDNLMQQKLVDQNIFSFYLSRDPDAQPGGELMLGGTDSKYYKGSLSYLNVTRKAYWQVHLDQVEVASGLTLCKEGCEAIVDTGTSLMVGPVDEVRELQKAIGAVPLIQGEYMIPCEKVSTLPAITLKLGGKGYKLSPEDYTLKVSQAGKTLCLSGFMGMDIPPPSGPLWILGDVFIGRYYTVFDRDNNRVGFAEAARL
Entry type: numeric. Quantity: pIC50, the -log10 of concentration in molar units.

compound: N#Cc1ccc(C(=O)Nc2cnc(F)c([C@@]3(CF)N=C(N)O[C@@H]4C[C@@H]43)c2)nc1
quantity-name: pIC50
reported: 3.53

Using the record for `NC1=N[C@](CF)(c2cc(NC(=O)c3ccc(Br)cn3)cnc2F)[C@H]2C[C@H]2O1` , report its pIC50. 2.74

`NC1=N[C@@](c2cc(NC(=O)c3cnc(OCC4CCCCC4)cn3)ccc2F)(C(F)F)[C@H]2C[C@H]2O1` ? 3.64

CS(=O)(=O)c1c(F)cc(NC(=O)c2ccc(Cl)cn2)cc1[C@@]1(CF)N=C(N)O[C@@H]2C[C@@H]21 (racemic) ? 3.08

`NC1=N[C@@](c2cc(NC(=O)c3ncc(Cl)cc3CF)ccc2F)(C(F)F)[C@H]2C[C@H]2O1` ? 3.73

`NC1=N[C@@](c2cc(NC(=O)c3cnc(OCc4cocn4)cn3)ccc2F)(C(F)F)[C@H]2C[C@H]2O1` ? 3.03

* * *

A collection of molecules and their measured IC50
molecular target: Cathepsin D (Cat D) (Homo sapiens (Human), UniProt P07339); experiment: In vitro enzymatic Cathepsin D (Cat D) FRET assay; assay type: biochemical; settings: read-out: CatD IC50

Examples from the recorded data:
molecule: N#Cc1ccc(C(=O)Nc2ccc(Cl)c([C@@]3(CF)N=C(N)O[C@@H]4C[C@@H]43)c2)nc1
target-desc: Cathepsin D (Cat D) (Homo sapiens (Human), UniProt P07339)
IC50: 1560 µM
//
molecule: N#Cc1cnc2c(Nc3ccc(Cl)c([C@]4(C(F)F)N=C(N)O[C@H]5C[C@H]54)c3)ncc(F)c2c1 [Example 351]
target-desc: Cathepsin D (Cat D) (Homo sapiens (Human), UniProt P07339)
IC50: > 14.8 µM
//
molecule: CC#CCOc1cnc(C(=O)Nc2ccc(Cl)c([C@@]3(C(F)F)N=C(N)O[C@@H]4C[C@@H]43)c2)cn1
target-desc: Cathepsin D (Cat D) (Homo sapiens (Human), UniProt P07339)
IC50: 1930 µM

Using the record for `NC1=N[C@@](CF)(c2cc(NC(=O)c3ccc(Cl)cn3)ccc2Cl)[C@@H]2C[C@@H]2O1` , report its IC50. > 400 µM

NC1=NC(CF)(c2cc(NC(=O)c3ccc(Br)cn3)cc(F)c2F)[C@@H]2C[C@@H]2O1 (stereo in doubt) ? 516 µM

NC1=N[C@@](CF)(c2cc(NC(=O)c3ccc(Cl)cn3)ccc2Cl)[C@@H]2CC2O1 (stereo partly shown) ? 918 µM

`NC1=N[C@](CF)(c2cc(NC(=O)c3ncc(Cl)cc3CF)ccc2Cl)[C@H]2C[C@H]2O1` ? 444 µM

* * *

target: Beta Secretase enzyme (BACE) (Homo sapiens (Human)); experiment: In vitro enzymatic BACE FRET assay; type: biochemical; conditions: read-out: BACE1 Enzyme assay IC50
Sequence (P56817 46-501): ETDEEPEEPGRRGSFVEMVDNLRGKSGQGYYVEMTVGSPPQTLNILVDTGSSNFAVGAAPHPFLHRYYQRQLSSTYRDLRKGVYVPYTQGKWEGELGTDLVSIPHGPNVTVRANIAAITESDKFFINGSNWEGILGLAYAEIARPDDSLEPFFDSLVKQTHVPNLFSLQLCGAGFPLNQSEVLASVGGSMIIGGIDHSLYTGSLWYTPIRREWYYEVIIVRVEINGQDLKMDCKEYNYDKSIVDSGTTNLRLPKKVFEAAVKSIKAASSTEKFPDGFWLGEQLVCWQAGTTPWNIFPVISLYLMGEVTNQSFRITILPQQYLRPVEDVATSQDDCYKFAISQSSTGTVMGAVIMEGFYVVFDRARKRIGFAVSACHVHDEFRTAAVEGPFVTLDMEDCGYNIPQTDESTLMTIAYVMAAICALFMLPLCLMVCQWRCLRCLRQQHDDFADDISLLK
quantity-name: IC50 (nM)
Express the result in nM but write the number alone.

Examples from the recorded data:
molecule: NC1=N[C@](CF)(c2cccc(NC(=O)c3ccc(Cl)cn3)c2)[C@H]2C[C@H]2O1 (racemic) [Example 423]
target-desc: Beta Secretase enzyme (BACE) (Homo sapiens (Human))
IC50, nM: 396

molecule: COc1ccc(C(=O)Nc2ccc(Cl)c([C@@]3(CF)N=C(N)O[C@@H]4C[C@@H]43)c2)nc1 [Example 282]
target-desc: Beta Secretase enzyme (BACE) (Homo sapiens (Human))
IC50, nM: 196

molecule: COc1cnc(C(=O)Nc2ccc(Cl)c([C@]3(CF)N=C(N)O[C@H]4C[C@H]43)c2)cn1 [Example 273]
target-desc: Beta Secretase enzyme (BACE) (Homo sapiens (Human))
IC50, nM: 36300

molecule: NC1=N[C@](CF)(c2cc(Nc3nccc4cc(Cl)cnc34)ccc2F)[C@H]2C[C@H]2O1 [Example 345]
target-desc: Beta Secretase enzyme (BACE) (Homo sapiens (Human))
IC50, nM: 71.3

molecule: CO[C@H](C)C(=O)Nc1ccc(F)c([C@@]2(C(F)F)N=C(N)O[C@@H]3C[C@@H]32)c1 (mixture of isomers) [Example 257]
target-desc: Beta Secretase enzyme (BACE) (Homo sapiens (Human))
IC50, nM: 1840

Using the record for Cc1cc(OC(F)F)cnc1C(=O)Nc1cc(F)c(Cl)c([C@@]2(CF)N=C(N)O[C@@H]3C[C@@H]32)c1 [Example 158] , report its IC50. 40.3

CC#Cc1cncc(-c2cc([C@]3(CF)N=C(N)O[C@H]4C[C@H]43)c(F)cc2CO)c1 [Example 432] ? 33100

* * *

A collection of compounds and their measured pIC50
biological target: Cathepsin D (Cat D) (Homo sapiens (Human)); experiment: In vitro enzymatic Cathepsin D (Cat D) FRET assay; assay type: biochemical; details: read-out: CatD IC50
Entry type: numeric. Quantity: pIC50, the -log10 of concentration in molar units.

Examples from the recorded data:
compound: CC#CCOc1ccc(C(=O)Nc2ccc(F)c([C@@]3(CF)N=C(N)O[C@@H]4C[C@@H]43)c2)nc1
pIC50: 3.52
--
compound: CC#CCOc1cnc(C(=O)Nc2ccc(F)c([C@@]3(CF)N=C(N)O[C@@H]4C[C@@H]43)c2)cn1
pIC50: 3.02
--
compound: COc1cnc2c(Nc3ccc(F)c([C@]4(C)N=C(N)O[C@@H]5C[C@@H]54)c3)nccc2c1
pIC50: 4.25
--
compound: NC1=N[C@@](c2cc(N3Cc4cc(Cl)cnc4C3=O)ccc2F)(C(F)F)[C@H]2C[C@H]2O1
pIC50: 3.18

Using the record for `NC1=N[C@@](c2cc(NCC#Cc3ccccc3)ccc2F)(C(F)F)[C@H]2C[C@H]2O1` , report its pIC50. 4.72

`Cc1cc(C#N)cnc1C(=O)Nc1ccc(Cl)c([C@@]2(C(F)F)N=C(N)O[C@@H]3C[C@@H]32)c1` ? 3.27

NC1=N[C@](CF)(c2nc(NC(=O)c3ccc(Cl)cn3)ccc2F)[C@H]2C[C@H]2O1 (stereo in doubt) ? 2.79

`NC1=N[C@@](c2cc(NC(=O)c3cnc(OCc4ncco4)cn3)ccc2F)(C(F)F)[C@H]2C[C@H]2O1` ? 3.12

`COc1cnc2c(Nc3ccc(F)c([C@]4(CF)N=C(N)O[C@H]5C[C@H]54)c3F)nccc2n1` ? 3.53

`NC1=N[C@@](c2cc(Nc3nccc4cc(C#CC5CC5)cnc34)ccc2F)(C(F)F)[C@H]2C[C@H]2O1` ? 2.05

N#Cc1cnc(C(=O)Nc2ccc(F)c([C@]3(C(F)F)N=C(N)O[C@H]4C[C@H]43)c2)c(Cl)c1 [Example 67] ? 2.89

`NC1=N[C@@](c2cc(NC(=O)c3cnc(OCc4cscn4)cn3)ccc2F)(C(F)F)[C@H]2C[C@H]2O1` ? 3.24

* * *

A collection of compounds and their measured IC50
target: Beta Secretase enzyme (BACE) (Homo sapiens (Human)); experiment: In vitro enzymatic BACE FRET assay; type: biochemical; settings: read-out: BACE1 Enzyme assay IC50
Express the result in nM but write the number alone.

compound: N#Cc1cnc(C(=O)Nc2ccc(F)c([C@@]3(C(F)F)N=C(N)O[C@@H]4C[C@@H]43)c2)c(C(F)F)c1
IC50 [nM]: 14.4

compound: NC1=N[C@@](c2cc(N[C@@H]3CCc4cc(Br)cnc43)ccc2F)(C(F)F)[C@H]2C[C@H]2O1 (single isomer, unassigned)
IC50 [nM]: 143

Please find the next compound below.
Lab note: need IC50 with Beta Secretase enzyme (BACE) (Homo sapiens (Human)) for entry `NC1=N[C@](CF)(c2cc(NC(=O)c3ccc(Br)cn3)cc(F)c2F)[C@H]2C[C@H]2O1` , please look it up. 46.9

* * *

molecular target: BACE (Homo sapiens (Human), UniProt P56817); assay: In vitro BACE cell-based assay (Aβ40 in conditioned medium, sandwich ELISA)
Sequence (P56817 46-501, species assumed): as the sequence (P56817 46-501) above
A collection of compounds and their measured IC50
Express the result in µM but write the number alone.

Examples from the recorded data:
compound: COc1cnc(C(=O)Nc2ccc(F)c([C@@]3(C(F)F)N=C(N)O[C@@H]4C[C@@H]43)c2)c(C)n1 [Example 63]
quantity-name: IC50
unit-of-measure: µM
reported: 0.0584
--
compound: NC1=N[C@@](CF)(c2cc(NC(=O)c3ccc(Cl)cn3)cc(F)c2F)[C@@H]2C[C@@H]2O1 [Example 32]
quantity-name: IC50
unit-of-measure: µM
reported: 0.232
--
compound: Cc1cc(C#N)cnc1C(=O)Nc1cc(F)c(Cl)c([C@@]2(CF)N=C(N)O[C@@H]3C[C@@H]32)c1 [Example 138]
quantity-name: IC50
unit-of-measure: µM
reported: 0.0151

Using the record for Cc1cc(NC(=O)c2ncc(Cl)cc2Cl)cc([C@@]2(C(F)F)N=C(N)O[C@@H]3C[C@@H]32)c1F [Example 135] , report its IC50. 0.0199

NC1=N[C@@](c2cc(NC(=O)c3ccc(OCC#CC4CC4)cn3)ccc2F)(C(F)F)[C@H]2C[C@H]2O1 [Example 250] ? 0.603

N#Cc1ccc(C(=O)Nc2ccc(Cl)c([C@@]3(CF)N=C(N)O[C@@H]4C[C@@H]43)c2)nc1 [Example 277] ? 0.0192

COCc1cc(Cl)cnc1C(=O)Nc1ccc(Cl)c([C@@]2(CF)N=C(N)O[C@@H]3C[C@@H]32)c1 [Example 128] ? 0.0161
